# Tested on: RPMI-8402 (T-Lymphoblastic Leukemia);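 also: after 72 h of two-drug dosing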
# PROTOCOL DETAILS: Bliss excess, mean over the matrix (fraction); higher = more synergy
Would you kindly list Bliss excess for each of these molecules?
Could you respond with only the numeric value?

**Query** Provide only the value of recorded Bliss excess for CN(CCO)CC[C@H](CSc1ccccc1)Nc1ccc(S(=O)(=O)NC(=O)c2ccc(N3CCC([C@@H](O)c4ccccc4-c4ccc(Cl)cc4)CC3)cc2)cc1S(=O)(=O)C(F)(F)F [AZD4320] + Cc1cc2ncnn2cc1Nc1ncc2c(n1)n(C1CCOCC1)c(=O)n2C [AZD7648] (first compound max 1 µM, 7x7, partner max 10 µM)
**Result** 0.0194

**Query** Provide only the value of recorded Bliss excess for Cn1cnc2c(F)c(Nc3ccc(Br)cc3Cl)c(C(=O)NOCCO)cc21 [Selumetinib] + C[C@@H]1COCCN1C2=NC(=NC(=C2)C3(CC3)[S@](=N)(=O)C)C4=C5C=CNC5=NC=C4 [AZD6738] (first compound max 10 µM, 7x7, partner max 10 µM)
**Result** -0.0196

**Query** Provide only the value of recorded Bliss excess for Cn1cnc2c(F)c(Nc3ccc(Br)cc3Cl)c(C(=O)NOCCO)cc21 [Selumetinib] + CC(C)n1c(=O)n(C)c2cnc3cc(F)c(-c4ccc(OCCCN5CCCCC5)nc4)cc3c21 [AZD1390] (first compound max 10 µM, 7x7, partner max 0.3 µM)
**Result** -0.039

**Query** Provide only the value of recorded Bliss excess for Cn1cnc2c(F)c(Nc3ccc(Br)cc3Cl)c(C(=O)NOCCO)cc21 [Selumetinib] + C=CCn1c(=O)c2cnc(Nc3ccc(N4CCN(C)CC4)cc3)nc2n1-c1cccc(C(C)(C)O)n1 [AZD1775] (first compound max 10 µM, partner max 1 µM)
**Result** -0.0344

* * *

# Tested on: SBC-3 (Small Cell Lung Carcinoma)
# PROTOCOL DETAILS: combination Emax (second highest fraction inhibited in the dose matrix, 72 h); higher = more inhibition; extreme values may be limits of the assay
ENDPOINT NAME: combination Emax

**Query** Write down the reported combination Emax (system: SBC-3 (Small Cell Lung Carcinoma)) of CS(=O)(=O)CCNCc1ccc(-c2ccc3ncnc(Nc4ccc(OCc5cccc(F)c5)c(Cl)c4)c3c2)o1 [Lapatinib] + NC1(c2ccc(-c3nc4ccn5c(=O)[nH]nc5c4cc3-c3ccccc3)cc2)CCC1 [MK-2206] (first compound max 10 µM, 7x7, partner max 10 µM)
**Result** 0.917

**Query** Write down the reported combination Emax (system: SBC-3 (Small Cell Lung Carcinoma)) of CCN(CCO)CCCOc1ccc2c(Nc3cc(CC(=O)Nc4cccc(F)c4)[nH]n3)ncnc2c1 [AZD2811] + C[C@@H]1COCCN1C2=NC(=NC(=C2)C3(CC3)[S@](=N)(=O)C)C4=C5C=CNC5=NC=C4 [AZD6738] (first compound max 1 µM, 7x7, partner max 10 µM)
**Result** 0.656

**Query** Write down the reported combination Emax (system: SBC-3 (Small Cell Lung Carcinoma)) of CC1(C)CCC(CN2CCN(c3ccc(C(=O)NS(=O)(=O)c4ccc(NCC5CCOCC5)c([N+](=O)[O-])c4)c(Oc4cnc5[nH]ccc5c4)c3)CC2)=C(c2ccc(Cl)cc2)C1 [Venetoclax] + COc1cc(Nc2ncc3c(n2)-c2ccc(Cl)cc2C(c2c(F)cccc2OC)=NC3)ccc1C(=O)O [Alisertib] (first compound max 1 µM, 7x7, partner max 10 µM)
**Result** 0.942

**Query** Write down the reported combination Emax (system: SBC-3 (Small Cell Lung Carcinoma)) of C[C@@H]1COCCN1c1cc(C2([S@](C)(=N)=O)CC2)nc(-c2ccnc3[nH]ccc23)n1 [AZD6738] + C1CC(C1)(C(=O)[O-])C(=O)[O-].N.N.[Pt+2] [Carboplatin] (first compound max 10 µM, 7x7, partner max 10 µM)
**Result** 0.647
